Where these numbers come from: patent US20260224563A1

Assay: Multicenter, open-label, Phase 1a/b study of HC-7366 in subjects with advanced solid tumors (safety, PK)
Format: in vivo
Conditions: plasma; human, multiple once daily oral 40 mg (N = 8), Cycle 1 Day 21, geometric mean; read-out: AUC0-τ
Source text: […]
Readout: AUC (ng·h/mL)
Answer with a number only, understood to be in ng·h/mL.

query: Query: AUC; subject: CNC(=O)c1ncn2cc(-c3c(F)ccc(NS(=O)(=O)c4cc(Cl)cnc4OC)c3F)ncc12
result: 99300

----------
Test: Solubility testing in organic solvents and water (visual, room temperature)
Type: physicochemical
Conditions: heptane, 24 °C, organic solvent or mixture, thermodynamic from solid, Heptane, read-out: Solubility
Where a name gives a salt, the structure may show the parent alone.
Readout: Solubility

query: Query: Solubility; subject: CNC(=O)c1ncn2cc(-c3c(F)ccc(NS(=O)(=O)c4cc(Cl)cnc4OC)c3F)ncc12 [Potassium salt Form III]
result: < 100 µg/mL
